test: ATG_SREBP_CIS: Attagene CIS-FACTORIAL HepG2 Assay for human Sterol Regulatory Element Binding (SREBP) (AID 2282962); details: HepG2 Attagene cis-factorial SREBP reporter, mRNA; actives raise or lower the signal
The source made the active and inactive calls. Rule for the calls: active = hit-call score of the fitted dose curve at least 0.9, where 1 is the maximum; inactive = score below 0.9.
Mark one answer only. Choices: 1 for active, 0 for inactive

**Query** What is the recorded call for this compound in the test? `O=C(NC(=O)c1c(F)cccc1F)Nc1ccc(Oc2ccc(C(F)(F)F)cc2Cl)cc1F`
**Result** 0

**Query** What is the recorded call for this compound in the test? `O=C(CCN1CC1)OCC(CO)(COC(=O)CCN1CC1)COC(=O)CCN1CC1`
**Result** 0

**Query** What is the recorded call for this compound in the test? CC(=O)c1cc2c(cc1C)C(C)(C)C(C)CC2(C)C (stereo not drawn)
**Result** 1

**Query** What is the recorded call for this compound in the test? `CC(C)C#N`
**Result** 0

**Query** What is the recorded call for this compound in the test? `O=[N+]([O-])O`
**Result** 0

// next entry
**Query** What is the recorded call for this compound in the test? `O=[N+]([O-])O.O=[N+]([O-])O.[Cd]`
**Result** 0
